# Test system: NK-YS (IL-2 2.5 ng/mL)
# Measurement description: percent inhibition of viability; higher = more inhibition;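 further: normalised to DMSO-only wells as negative and benzethonium chloride as positive control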
# Condition set: 72 h; 100 nM
Readout: percent inhibition of viability (%)
Answers are plain numbers, in %.

Observe how each entry below is paired with its result.
COc1cc(Nc2c(C#N)cnc3cc(OCCCN4CCN(C)CC4)c(OC)cc23)c(Cl)cc1Cl [Bosutinib] (max concentration tested 10000 nM) : -2.75
CO[C@@]12[C@H](COC(N)=O)C3=C(C(=O)C(C)=C(N)C3=O)N1C[C@@H]1N[C@@H]12 [Mitomycin C] (max concentration tested 10000 nM) : 7.6
Cc1cc(OCc2nnc(SC3CCCC3)n2-c2cccnc2)ccc1-c1ccc(S(C)(=O)=O)cc1 [NMS-873] (max concentration tested 10000 nM) : 46.8

Continue with the next compound.
Input line: # percent inhibition of viability lookup, item COc1cc2c(Oc3ccc(NC(=O)C4(C(=O)Nc5ccc(F)cc5)CC4)cc3F)ccnc2cc1OCCCN1CCOCC1 [Foretinib] (max concentration tested 1000 nM)
Output line: 11.5

###

For each of the molecules below, state its percent inhibition of viability.
# Tested on: NK-92 (IL-2 2.5 ng/mL)
# Measurement description: percent inhibition of viability; higher = more inhibition
# Condition set: 72 h; 100 nM
Numbers only, in %.

COc1cc2ncnc(Oc3cccc(NC(=O)Nc4cc(C(C)(C)C(F)(F)F)on4)c3)c2cc1OC (max concentration tested 10000 nM) : -2.76
COc1ccc(-c2ccc3ncc4c(c3c2)n(-c2ccc(N3CCNCC3)c(C(F)(F)F)c2)c(=O)n4C)cn1 [NVP-BGT226] (max concentration tested 1000 nM) : 74.2
Cc1c(C(=O)Nc2ccc(N3C[C@@H](C)O[C@@H](C)C3)nc2)cccc1-c1ccc(OC(F)(F)F)cc1 [Sonidegib] (max concentration tested 10000 nM) : 11.2
C[C@@H]1COC(Nc2ccc3ncnc(Nc4ccc(OCc5nccs5)c(Cl)c4)c3c2)=N1 [Varlitinib] (max concentration tested 10000 nM) : 0.79

Report percent inhibition of viability for each item below.
1. Cn1cc(CNCC2CCN(c3ncc(C(=O)NO)cn3)CC2)c2ccccc21 [Quisinostat] (max concentration tested 1000 nM)
2. CS(=O)(=O)c1ccc(C2=C(c3ccccc3)C(=O)OC2)cc1 [Rofecoxib] (max concentration tested 10000 nM)
3. O=C(CCBr)N1CCN(C(=O)CCBr)CC1 [Pipobroman] (max concentration tested 10000 nM)
4. CNC(=O)c1cc(Oc2ccc(NC(=O)Nc3ccc(Cl)c(C(F)(F)F)c3)cc2)ccn1 [Sorafenib] (max concentration tested 1000 nM)
5. CON(C)C(=O)N1N=C(c2cc(F)ccc2F)S[C@@]1(CCCN)c1ccccc1 [ARRY-520] (max concentration tested 1000 nM)
6. O=C1c2c(O)ccc(O)c2C(=O)c2c(NCCNCCO)ccc(NCCNCCO)c21 [Mitoxantrone] (max concentration tested 1000 nM)

Output line:
1. 70.9
2. -4.39
3. -1.01
4. -5.91
5. 92.3
6. 11.4

###

# Test system: KHYG-1 (IL-2 2.5 ng/mL)
# Measurement description: percent inhibition of viability; higher = more inhibition
# Condition set: 72 h; 10 nM
Readout: percent inhibition of viability (%)
One number for each entry, in %.

CC(C)C[C@H](NC(=O)[C@@H](COC(C)(C)C)NC(=O)[C@H](Cc1ccc(O)cc1)NC(=O)[C@H](CO)NC(=O)[C@H](Cc1c[nH]c2ccccc12)NC(=O)[C@H](Cc1cnc[nH]1)NC(=O)[C@@H]1CCC(=O)N1)C(=O)N[C@@H](CCCNC(=N)N)C(=O)N1CCC[C@H]1C(=O)NNC(N)=O [Goserelin] (max concentration tested 10000 nM) : -3.78
Cc1ccc(NC(=O)c2ccc(CN3CC[C@H](N(C)C)C3)c(C(F)(F)F)c2)cc1Nc1nccc(-c2cncnc2)n1 [Bafetinib] (max concentration tested 1000 nM) : 1.74
CO[C@@]12[C@H](COC(N)=O)C3=C(C(=O)C(C)=C(N)C3=O)N1C[C@@H]1N[C@@H]12 [Mitomycin C] (max concentration tested 10000 nM) : -10.2
COc1cc2ncnc(Nc3ccc(F)c(Cl)c3)c2cc1NC(=O)/C=C/CN1CCCCC1 [Dacomitinib] (max concentration tested 1000 nM) : 7.74
CCc1cc(Nc2nccc(-c3c(-c4ccc(OC)c(C(=O)Nc5c(F)cccc5F)c4)nc4ccccn34)n2)c(OC)cc1N1CCC(N2CCN(S(C)(=O)=O)CC2)CC1 (max concentration tested 10000 nM) : -3.94
C/C(=C\c1csc(C)n1)[C@@H]1C[C@@H]2O[C@]2(C)CCC[C@H](C)[C@H](O)[C@@H](C)C(=O)C(C)(C)[C@@H](O)CC(=O)N1 [Ixabepilone] (max concentration tested 1000 nM) : -7.83
C[C@@H](Oc1ccc2[nH]nc(/C=C/c3cnn(CCO)c3)c2c1)c1c(Cl)cncc1Cl (max concentration tested 1000 nM) : 23.3
CN(C)C[C@@H]1CCn2cc(c3ccccc32)C2=C(C(=O)NC2=O)c2cn(c3ccccc23)CCO1 [Ruboxistaurin] (max concentration tested 10000 nM) : 0.63
COc1cc2c(cc1-c1c(C)noc1C)ncc1[nH]c(=O)n([C@H](C)c3ccccn3)c12 [I-BET151] (max concentration tested 10000 nM) : -3.86

Input line: If you can, please state the reported percent inhibition of viability value of CC(C)(C)Cn1c(N)nc2ccc(-c3[nH]c(C(C)(C)C)nc3-c3ccc(F)cc3)nc21 [Ralimetinib] (max concentration tested 10000 nM) .
Output line: -3.23
